Tested on: COLO 205 colon
Assay name: NCI tumour cell line growth inhibition, 48 h
Reported property: TGI

Dear colleague, could you send me TGI for each of the items below? Thanks.
1. O=C(NC(=O)c1cn(CCN2CCNCC2)c(=O)[nH]c1=O)OCc1ccccc1
2. CC(=O)CC(=O)CCCC(=O)Nc1ccc(Cl)cc1C
3. CCN(CC)CCNc1ccc([N+](=O)[O-])c2nc3ccccc3c(N)c12

Output:
1. > 100 µM
2. > 100 µM
3. 1.47 µM

I need TGI for every entry listed below, if you could help.
1. CCCCc1ccc(Nc2nc3c(ncn3C3OC(COC(C)=O)C(OC(C)=O)C3OC(C)=O)c(=O)[nH]2)cc1 (centres undefined)
2. COc1ccc2c(c1)C(=O)c1c-2n(CCCN=[N+]=[N-])c(=O)c2ccccc12
3. O=C(ON=c1c2ccccc2ccc2ccccc12)c1cc([N+](=O)[O-])cc([N+](=O)[O-])c1
4. COC(=O)C(C(=O)C(=O)Nc1cccc(O)c1)c1nc2ccc(Cl)cc2[nH]c1=O (centres undefined)

Output:
1: 37.7 µM; 2: > 100 µM; 3: > 100 µM; 4: > 100 µM

Provide the reported TGI of each entry below, same order.
1. C[N+](C)(C)CCOP(=O)(O)OP(=O)([O-])OCC1CCC(n2ccc(N)nc2=O)O1 (centres undefined)
2. COc1cc(/C=C/C(=O)C(=Cc2ccc(F)c(F)c2)C(=O)/C=C/c2ccc(O)c(OC)c2)ccc1O

Output:
> 100 µM
4.74 µM

====

Could you please report measured TGI for the items listed next?
Test system: NCI-H23 lung
Assay name: NCI tumour cell line growth inhibition, 48 h

Example entries and their recorded answers appear below.
Cn1c(-c2ccccc2)cc(-c2ccc3c(c2)OCO3)c1-c1cccs1; > 100 µM
Clc1ccc(-c2nc3c(-c4ccc(Cl)cc4)nc(-c4ccccc4)cn3c2-c2ccc(Cl)cc2)cc1; > 50 µM
CN(c1c(Cl)cccc1Cl)S(=O)(=O)c1ccccc1[N+](=O)[O-]; > 100 µM
COc1cc2cc3c4c(cc(OC)c(OC)c4c2cc1OC)CCN3C(=O)CCCC(=O)O; > 100 µM
O=C1NC(=NCC(CO)c2ccccc2)S/C1=C\c1ccc2ncccc2c1 (stereo not given); > 25 µM
Cc1cc(C)nc(NS(=O)(=O)c2ccc(Nc3c4ccccc4nc4c(C(=O)NCCN(C)C)ccc(Cl)c34)cc2)n1; 11.7 µM
COc1cc2c(cc1OC)C(CCc1ccc(Cl)cc1)N(C)CC2 (stereo not given); > 100 µM
C=CCCCCOC1C=CC(OC(C)=O)C(COC(C)=O)O1 (stereo not given); > 100 µM

// input: 2 molecules below; output: TGI for each
1. CC/C(=N\Nc1nc2ccccc2n1C)c1ccccn1
2. NC(CCCCCP(=O)(O)O)C(=O)O (stereo not given)

Output:
1: 17.6 µM; 2: > 100 µM

====

Tested on: SW-620 colon
Hi there, I'd appreciate the recorded GI50 for every entry that follows.

COc1ccc(Nc2c3ccccc3nc3c2c2ccccc2n3C)cc1; 41.7 µM
CCN1CCN(CCOc2ccc(CNc3ccc4nc(CCC5CCCCC5)[nH]c4c3)cc2)CC1; 1.91 µM
O=C1NC(=NCC(CO)c2ccccc2)S/C1=C\c1ccc2ncccc2c1 (stereo not drawn); 7.74 µM
COc1ccc2c(c1)C(=O)c1c-2n(CCCN=[N+]=[N-])c(=O)c2ccccc12; 25.5 µM
Cn1cc(-c2csc(-c3c[nH]c4ncccc34)n2)c2cc(Br)cnc21; 4.46 µM

Working through the 3 compounds below one at a time, give GI50 for each.
1. COC1=C(OC)C(=O)C(/C=C(\C)C(=O)O)=C(C)C1=O
2. O=C1NC(=NCc2cccs2)SC1Cc1ccc2ncccc2c1 (stereo not drawn)
3. O=C(N[C@H](c1ccc(Cl)c(Cl)c1)C1CNC1)c1ccc2cnccc2c1

Output:
> 100 µM
9.16 µM
2.57 µM

====

System: HCC-2998 colon
Assay name: NCI tumour cell line growth inhibition, 48 h
Reported property: TGI (µM)
Give bare numbers, in µM.

Cc1csc2c(P(=O)(OC(C)C)OC(C)C)c(-c3ccccc3)cn12; 28.5
CC(=O)OCC1C(C(C)OC(C)=O)CCC2C1CCC1(C)C(OC(C)=O)CCC21 (centres undefined); 33.5
Cc1nn2c(N)cc(=O)nc2nc1/C=C/c1ccc(N(C)C)cc1; 23.3

Field: TGI. Fill in for each record below.
1. CCN1CCC[C@H]1c1cc(O)c2c(c1OC)C[C@H]1C[C@H]3[C@H](N)C(=O)C(C(N)=O)=C(O)[C@@]3(O)C(=O)C1=C2O
2. NC(=O)c1ccccc1NC(=O)C(=O)C(C(=O)c1ccc2ccccc2c1)C1OC(=O)c2ccccc21 (centres undefined)
3. CCN1CCN(CCOc2ccc(CNc3ccc4nc(CCC5CCCCC5)[nH]c4c3)cc2)CC1

Output:
1. 3.01
2. 20.1
3. 5.07

====

Tested on: UO-31 renal
Assay name: NCI tumour cell line growth inhibition, 48 h
Reported property: TGI (µM)
One number for each entry, in µM.

// input: 2 compounds below; output: TGI for each
1. Nc1nc(N)c2cc(CNc3ccc(Cl)c(Cl)c3)ccc2n1
2. CCN(CC)CCNc1ccc([N+](=O)[O-])c2nc3ccccc3c(N)c12

Output:
[2.17, 5.94]

====

Tested on: DLD-1 colon
Assay name: NCI tumour cell line growth inhibition, 48 h
Reported property: TGI (µM)
Give bare numbers, in µM.

O=C1C=C2S[C@H]3C[C@]2(C=C1Br)c1c(c(O)c2c4c1=NCCC=4C=N2)N3; 2.06
Cc1cc2c3ccccc3n(C)c2c2c1C(=O)c1ccccc1C2=O; 31.8
COC1/C=C\C=C(/C)C(=O)NC2=CC(=O)C=C(C2=O)C(OC)C(C)CC(OC)C(OC)C(C)/C=C(/C)C1OC(N)=O (stereo not given); 8.02

Moving on to another compound below.
Task: // query TGI value for entry Cc1ccc2nc3c(C(=O)NCCN(C)C)cccc3cc2c1
Output: 8.85

====

System: CCRF-CEM leukemia
Answer with one of the outcomes active, inactive

// known answers, use as guide
Cn1cc(-c2csc(-c3c[nH]c4ncccc34)n2)c2cc(Br)cnc21; inactive
O=C(Oc1cccnc1)c1ccccc1Nc1ccnc(C(F)(F)F)c1; active
COc1ccc(CN2c3ccccc3Sc3ccccc32)cc1F; active
O=C(CCCn1c2c(sc3ncccc32)c(=O)n2nnc(-c3ccccc3)c12)NCCc1cnc[nH]1; active

Task: Check the results log: what was the call for O=C1Cc2cc(CCn3ccnc3)c(Cl)cc2N1 ?
Output: inactive

Task: Recorded call for O=C1NC(=NCc2cccs2)SC1Cc1ccc2ncccc2c1 (stereo unspecified) ?
Output: inactive

====

Tested on: MDA-MB-231 breast
Assay name: NCI tumour cell line growth inhibition, 48 h
Exercise: state measured TGI for each of the molecules provided.

Known TGI results, listed for orientation:
CSC1=Nc2c(c(C)c(-c3ccccc3)n2COC(CO)CO)C2=NC(=O)C(C)N12 (stereo not given); > 100 µM
CCN1CCN(CCOc2ccc(CNc3ccc4nc(CCC5CCCCC5)[nH]c4c3)cc2)CC1; 3.11 µM
COc1ccc(C2CCc3nc4nc(N)nc(N)c4cc3C2)cc1 (stereo not given); 42 µM
O=C1NC(=NCc2cccs2)SC1Cc1ccc2ncccc2c1 (stereo not given); > 25 µM

Please turn your attention to the following entry.
Task: What value of measured TGI is listed for Clc1ccc(-c2nc3c(-c4ccc(Cl)cc4)nc(-c4ccccc4)cn3c2-c2ccc(Cl)cc2)cc1 ?
Output: > 50 µM

====

Test system: SR leukemia
Assay name: NCI tumour cell line growth inhibition, 48 h; in the data active = GI50 below about 0.43 µM; inactive = the rest
Would you mind answering with one of these outcomes? active, inactive

Check out these entries, answers already filled in.
CN(C)CC(C(=O)c1ccccc1)c1ccccc1 (stereo not given); inactive
O=C1C2=C(C(=O)c3c(O)ccc(O)c31)N(c1ccc(N3CCOCC3)nc1)Cc1ccccc1O2; active
CCCCCCN(CCCCCC)CCCNc1nccc2ccccc12; inactive

Task: Test call, this compound: C=CCN1C(=O)/C(=c2\sc3n(c2=O)C2C(NN=3)N(CC)C(=O)N2CC)c2ccccc21 (stereo not given)
Output: active

Task: Entry COc1ccc2c(c1)C(=O)c1c-2n(CCCN=[N+]=[N-])c(=O)c2ccccc12 : call = ?
Output: inactive

Task: What classification did COC1=C(OC)C(=O)C(/C=C(\C)C(=O)O)=C(C)C1=O end up with in this test?
Output: inactive

Task: Hey, what did the test say about O=C1NC(=NCc2cccs2)SC1Cc1ccc2ncccc2c1 (stereo not given) ?
Output: inactive

Task: Would you mind telling me which call this test gave COC(=O)[C@]12CC[C@@H](C)[C@H](C)[C@@H]1C1=CC[C@@H]3[C@@]4(C)C[C@@H](OC(=O)c5ccco5)[C@H](O)[C@@](C)(CO)[C@@H]4[C@H](O)C[C@@]3(C)[C@]1(C)CC2 ?
Output: inactive

Task: Tell me the recorded outcome of this test for COc1ccc(Nc2c3ccccc3nc3c2c2ccccc2n3C)cc1 .
Output: inactive

Task: Fill in: this test's call for CSC1=Nc2c(c(C)c(-c3ccccc3)n2COC(CO)CO)C2=NC(=O)C(C)N12 (stereo not given) is ___
Output: inactive
